Target: collagenase A (ColA) (Clostridium perfringens)
Assay: biochemical
Set-up: species or system C. perfringens
Conditions: read-out: Inhibition(%) on ColA
inhibition at 100 µM for assorted molecules
I only need the number, in %, no unit after it.

Worked cases, answers included:
# molecule, endpoint, experimentalValue
measured = [
    ("O=c1c(O)c(-c2cc(O)c(O)c(O)c2)oc2cc(O)cc(O)c12", "inhibition at 100 µM", 27.6),
    ("NS(=O)(=O)c1cc2c(cc1C(F)(F)F)NC(Cc1ccccc1)NS2(=O)=O (stereo not drawn) [bendroflumethiazide, reference compound]", "inhibition at 100 µM", 21.6),
    ("N[C@@H](CS)C(=O)O", "inhibition at 100 µM", 1.7),
    ("Nc1ccc2c(c1N)C(=O)c1ccccc1C2=O", "inhibition at 100 µM", 4.3),
]

Request: Quickly give me recorded inhibition at 100 µM for "O=c1cc(-c2ccc(O)cc2)oc2cc(O)cc(O)c12"
Result: 2.7

---

Molecular target: collagenase A (ColA) (Clostridium perfringens, UniProt P43153)
Sequence (P43153 87-1104 limits assumed): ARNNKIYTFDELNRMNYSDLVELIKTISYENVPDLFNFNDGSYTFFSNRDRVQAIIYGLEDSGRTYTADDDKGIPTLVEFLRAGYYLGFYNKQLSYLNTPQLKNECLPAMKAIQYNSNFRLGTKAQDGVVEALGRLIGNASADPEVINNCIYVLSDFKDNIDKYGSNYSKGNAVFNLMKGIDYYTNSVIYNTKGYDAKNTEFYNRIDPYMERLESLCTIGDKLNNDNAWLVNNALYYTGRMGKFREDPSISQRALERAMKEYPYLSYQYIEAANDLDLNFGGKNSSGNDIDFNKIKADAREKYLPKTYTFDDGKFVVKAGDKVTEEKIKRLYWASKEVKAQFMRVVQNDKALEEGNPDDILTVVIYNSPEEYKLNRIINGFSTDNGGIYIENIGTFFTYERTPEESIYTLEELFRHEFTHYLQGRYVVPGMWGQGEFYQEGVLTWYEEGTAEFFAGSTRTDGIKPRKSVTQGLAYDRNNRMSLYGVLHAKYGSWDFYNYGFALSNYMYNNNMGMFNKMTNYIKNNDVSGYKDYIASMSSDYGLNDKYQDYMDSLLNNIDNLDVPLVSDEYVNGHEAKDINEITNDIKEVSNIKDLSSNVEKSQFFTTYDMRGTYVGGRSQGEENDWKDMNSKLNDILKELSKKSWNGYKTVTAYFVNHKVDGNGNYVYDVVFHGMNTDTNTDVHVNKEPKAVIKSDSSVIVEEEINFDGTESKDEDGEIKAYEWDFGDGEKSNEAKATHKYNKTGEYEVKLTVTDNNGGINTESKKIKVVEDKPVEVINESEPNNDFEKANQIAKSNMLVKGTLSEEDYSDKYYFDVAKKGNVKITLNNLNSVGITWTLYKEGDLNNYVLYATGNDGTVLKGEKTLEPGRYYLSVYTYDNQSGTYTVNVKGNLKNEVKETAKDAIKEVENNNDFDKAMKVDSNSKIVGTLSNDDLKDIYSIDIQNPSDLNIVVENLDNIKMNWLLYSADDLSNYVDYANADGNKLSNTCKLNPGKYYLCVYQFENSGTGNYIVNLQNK
Assay: biochemical
Set-up: species or system C. perfringens
Conditions: read-out: Inhibition (%) on ColA
Below: a set of entries, each annotated with reported inhibition at 100 µM.
Just the number in %, nothing appended.

Illustrative cases are given below, each with its answer.
# compound, inhibition at 100 µM [%]
measured = [
    ("O=c1c(O)c(-c2ccccc2)oc2ccccc12 [3-Hydroxyflavone, 3-hydroxyflavone]", 31),
    ("NC(=O)NCCC[C@H](N)C(=O)O", 7.2),
    ("O=c1c(O)c(-c2cc(O)c(O)c(O)c2)oc2cc(O)cc(O)c12", 23.2),
    ("COc1ccc2[nH]c3c(c2c1)CCNC3C(=O)O (centres unmarked)", 19.6),
    ("COc1cc2c(cc1OC)-c1cc3ccc(OC)c(OC)c3c[n+]1CC2 [Palmatine chloride, palmatine chloride]", 98.7),
]

Request: Identify inhibition at 100 µM associated with the compound "COc1ccc(-c2coc3cc(O)cc(O)c3c2=O)cc1"
Result: 76.1

Request: Give the value of inhibition at 100 µM reported for the following: O=C(/C=C/c1ccccc1)c1ccccc1O [2′-Hydroxychalcone, 2′-hydroxychalcone]
Result: 97.3

Request: Please list inhibition at 100 µM recorded for the compound O=c1cc(-c2ccc(O)cc2)oc2cccc(O)c12 [4′,5-Dihydroxyflavone, 4′,5-dihydroxyflavone]
Result: 105

Request: Input "O=C(O)c1cc(O)c2c(c1)C(=O)c1cccc(O)c1C2=O" , output reported inhibition at 100 µM.
Result: 80.6

Request: Determine its reported inhibition at 100 µM: "O=c1cc(-c2ccccc2)oc2cccc(O)c12"
Result: 25.4

Request: Consider the compound "COc1cc(/C=C/C(=O)CC(=O)/C=C/c2ccc(O)c(OC)c2)ccc1O" and give its recorded inhibition at 100 µM.
Result: 102

---

Target: collagenase A (ColA) (Clostridium perfringens)
Experiment: biochemical
Design: species or system C. perfringens
Details: read-out: Inhibition(%) on ColA
Measured inhibition at 100 µM, listed per entry for reference.
Report the value in % with no unit label.

# compound, endpoint, unitString, experimentalValue
measured = [
    ("O=c1oc(-c2ccccc2)cc2ccccc12 [3-phenyl-1H-2-benzopyran-1-one]", "inhibition at 100 µM", "%", 0.2),
]

Request: Specify inhibition at 100 µM for O=C1c2ccccc2C(=O)c2c(O)ccc(O)c21 [1,4-dihydroxyanthraquinone] and stop.
Result: 3.2

Request: Output measured inhibition at 100 µM for this item: CC1=CC(=O)c2c(O)cccc2C1=O [plumbagin]
Result: -7.7

Request: Given the compound O=c1cc(-c2ccccc2)oc2cccc(O)c12 [Primuletin, primuletin] , write its reported inhibition at 100 µM.
Result: 33.1

---

Molecular target: collagenase A (ColA) (Clostridium perfringens)
Test: biochemical
Design: species or system C. perfringens
Settings: read-out: Inhibition (%) on ColA
# inhibition at 1 µM per record follows
Provide only the numeric value, understood in %.

# molecule, inhibition at 1 µM, %
measured = [
    ("O=c1cc(-c2ccccc2)oc2cccc(O)c12", -9.3),
    ("O=c1cc(-c2ccc(O)cc2)oc2cccc(O)c12 [4′,5-Dihydroxyflavone, 4′,5-dihydroxyflavone]", -48),
]

Now consider the entry below.
Request: For the molecule "NC(=O)NCCC[C@H](N)C(=O)O" , report inhibition at 1 µM.
Result: -4.3

---

Molecular target: collagenase A (ColA) (Clostridium perfringens)
Experiment: biochemical
Parameters: species or system C. perfringens
Details: read-out: Inhibition (%) on ColA
Recorded inhibition at 10 µM by entry
Lab book: enter the figure in %, no units written.

// worked examples, inhibition at 10 µM included
# molecule, unitString, inhibition at 10 µM
records = [
    ("O=c1c(O)c(-c2ccccc2)oc2ccccc12 [3-Hydroxyflavone, 3-hydroxyflavone]", "%", 17.4),
    ("COc1cc2c(cc1OC)-c1cc3ccc(OC)c(OC)c3c[n+]1CC2 [Palmatine chloride, palmatine chloride]", "%", 84.9),
    ("COc1cc(/C=C/C(=O)CC(=O)/C=C/c2ccc(O)c(OC)c2)ccc1O", "%", 102),
    ("O=c1cc(-c2ccc(O)cc2)oc2cccc(O)c12 [4′,5-Dihydroxyflavone, 4′,5-dihydroxyflavone]", "%", 108),
]

Request: Identify inhibition at 10 µM associated with the molecule "O=C(/C=C/C=C/c1ccc2c(c1)OCO2)N1CCCCC1"
Result: 72.5

---

Biological target: collagenase A (ColA) (Clostridium perfringens, UniProt P43153)
Assay: biochemical
Design: species or system C. perfringens
Conditions: read-out: Inhibition(%) on ColA
Measured inhibition at 100 µM values are reported for all entries that follow.
# number only, unit % dropped from output

Use these answered entries as a reference point.
# molecule, experimentalValue
measured = [
    ("O=c1c(-c2ccc(O)cc2)coc2cc(O)ccc12", 5.8),
    ("CC(=O)c1c(O)c(C)c(O)c2c1OC1=CC(=O)C(C(C)=O)C(=O)C12C (stereo not shown)", 3.9),
    ("CC(=O)NCCCS(=O)(=O)O [acamprosate calcium, reference compound]", 17.2),
]

Request: Please indicate inhibition at 100 µM recorded for O=C(O)C1CCCN1S(=O)(=O)c1cccc(C(F)(F)F)c1 (stereo not shown)
Result: 0.7

The origin of these recorded values is paper PMC9781087.
